binders and their reported Kd
Molecular target: T1, human IL-11 (human, UniProt P20809 22-199)
T1 construct: bought from Invigate; also called hIL-11; hIL11
T1 sequence: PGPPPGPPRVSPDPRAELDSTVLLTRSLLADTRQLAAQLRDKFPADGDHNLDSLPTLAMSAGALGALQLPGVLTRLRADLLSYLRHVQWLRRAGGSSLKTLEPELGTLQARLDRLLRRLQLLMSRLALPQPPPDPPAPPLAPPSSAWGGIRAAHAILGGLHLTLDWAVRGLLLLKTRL
Experiment: SPR, antibody captured, IL-11 as analyte
State just the number; it will be interpreted in nM.

{"Binder": "TPP-26302 (antibody, V domains shown, constant regions not restated) VH: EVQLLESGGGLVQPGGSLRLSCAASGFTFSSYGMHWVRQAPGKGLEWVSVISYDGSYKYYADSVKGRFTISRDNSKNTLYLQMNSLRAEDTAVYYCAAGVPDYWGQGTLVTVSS VL: QSVLTQPPSASGTPGQRVTISCTGSSSNIGAGYDVHWYQQLPGTAPKLLIYSNNERPSGVPDRFSGSKSGTSASLAISGLRSEDEADYYCSAWDDSLNGPVFGGGTKLTVL", "Measured result": 13}

What does the data say about its Kd? Entry: TPP-26304 (antibody, V domains shown, constant regions not restated) VH: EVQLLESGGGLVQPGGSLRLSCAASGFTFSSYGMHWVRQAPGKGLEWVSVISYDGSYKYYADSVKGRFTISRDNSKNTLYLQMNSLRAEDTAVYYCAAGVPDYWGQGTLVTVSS VL: QSVLTQPPSASGTPGQRVTISCTGSSSNIWAGYDVHWYQQLPGTAPKLLIYSNNERPSGVPDRFSGSKSGTSASLAISGLRSEDEADYYCAAWDDSLNGPVFGGGTKLTVL
12
